assay: Selectivity index, ratio of IC50 for cytotoxicity against African green monkey Vero cells to IC50 for chloroquine-sensitive Plasmodium falciparum D6; assay type: toxicity, cell-based; settings: read-out: Ratio IC50
Provide the recorded selectivity ratio for the entries that follow.

Provide each entry's selectivity ratio from the list below.
1. Cc1cc(N(CCCNc2ccnc3cc(Cl)ccc23)Cc2ccccn2)nc(N2CCCC2)n1
2. CCN1CCN(c2cc(C)nc(N(CCCNc3ccnc4cc(Cl)ccc34)Cc3cccs3)n2)CC1
3. Cc1cc(N2CCOCC2)nc(N(CCCNc2ccnc3cc(Cl)ccc23)Cc2ccccn2)n1

Outgoing:
> 274
> 27
> 8.3

Data provenance is ChEMBL document CHEMBL4325903.
